// provenance: patent US20230235054A1

# Assay system: T1, cynoNectin4-mFc (cyno, UniProt A0A2K5WES1 32-349)
# T1 construct: Immobilized on the SPR chip; also called cyanoNectin4; not shown: mFc (mouse Fc)
# T1 sequence: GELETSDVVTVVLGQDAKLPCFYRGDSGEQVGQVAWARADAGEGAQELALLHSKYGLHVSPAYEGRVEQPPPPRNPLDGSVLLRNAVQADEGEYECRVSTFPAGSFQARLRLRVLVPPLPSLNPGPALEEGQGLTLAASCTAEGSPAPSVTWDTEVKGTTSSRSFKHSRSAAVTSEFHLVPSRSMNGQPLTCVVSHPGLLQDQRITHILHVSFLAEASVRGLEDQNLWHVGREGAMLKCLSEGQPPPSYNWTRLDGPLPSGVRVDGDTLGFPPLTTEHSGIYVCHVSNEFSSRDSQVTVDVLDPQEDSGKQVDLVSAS
# Protocol description: SPR, cynoNectin4-mFc immobilized, pH 6.5
Measured Kd, listed per entry for reference.
Experimental endpoint: Kd

* BAP-143-00-01 (antibody, V domains shown, Used as a conjugate with a linker payload (CAB ADC)) VH: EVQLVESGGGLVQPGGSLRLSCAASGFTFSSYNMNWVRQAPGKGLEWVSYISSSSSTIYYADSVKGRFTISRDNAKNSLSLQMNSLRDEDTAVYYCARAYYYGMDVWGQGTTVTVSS VL: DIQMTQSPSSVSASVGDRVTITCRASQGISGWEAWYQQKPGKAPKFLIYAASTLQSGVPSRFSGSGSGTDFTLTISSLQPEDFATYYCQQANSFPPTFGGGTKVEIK | 1.88 nM
* BAP-143-07-03-12 (antibody, V domains shown, Used as a conjugate with a linker payload (CAB ADC)) VH: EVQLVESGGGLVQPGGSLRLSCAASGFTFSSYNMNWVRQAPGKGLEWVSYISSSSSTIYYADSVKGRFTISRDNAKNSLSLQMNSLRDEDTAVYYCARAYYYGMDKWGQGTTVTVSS VL: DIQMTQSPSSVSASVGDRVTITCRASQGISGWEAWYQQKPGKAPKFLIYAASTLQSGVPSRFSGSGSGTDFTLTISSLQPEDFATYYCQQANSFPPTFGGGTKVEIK | 1.6 nM
* BAP-143-06-33-16 (antibody, V domains shown, Used as a conjugate with a linker payload (CAB ADC)) VH: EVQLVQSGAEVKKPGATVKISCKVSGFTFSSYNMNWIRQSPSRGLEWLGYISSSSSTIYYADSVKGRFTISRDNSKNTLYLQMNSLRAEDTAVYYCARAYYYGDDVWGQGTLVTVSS VL: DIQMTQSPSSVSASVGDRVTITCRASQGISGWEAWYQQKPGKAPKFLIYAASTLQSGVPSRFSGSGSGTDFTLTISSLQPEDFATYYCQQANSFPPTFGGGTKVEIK | 0.163 nM
* BAP-143-06-24-16 (antibody, V domains shown, Used as a conjugate with a linker payload (CAB ADC)) VH: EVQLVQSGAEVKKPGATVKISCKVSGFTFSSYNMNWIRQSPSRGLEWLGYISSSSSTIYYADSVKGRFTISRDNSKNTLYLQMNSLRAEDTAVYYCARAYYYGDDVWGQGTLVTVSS VL: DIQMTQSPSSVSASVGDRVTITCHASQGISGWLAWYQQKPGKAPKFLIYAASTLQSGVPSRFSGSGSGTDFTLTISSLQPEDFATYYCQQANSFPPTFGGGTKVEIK | 0.0534 nM
* BAP-143-wildtype (antibody, V domains shown, 150 kDa used in SPR; also called BAP143-00-00; benchmark (BM)) VH: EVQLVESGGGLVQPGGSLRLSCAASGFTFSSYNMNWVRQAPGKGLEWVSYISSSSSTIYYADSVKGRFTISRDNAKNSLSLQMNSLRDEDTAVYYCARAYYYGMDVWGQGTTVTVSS VL: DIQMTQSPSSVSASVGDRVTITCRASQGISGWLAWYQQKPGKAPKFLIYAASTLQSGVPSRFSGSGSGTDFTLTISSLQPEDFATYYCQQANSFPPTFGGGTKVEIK | 0.209 nM
